Measured values drawn from the supplement of paper PMC3334620 for this set.

Target: Zap1 (UniProt P47043)
Sequence: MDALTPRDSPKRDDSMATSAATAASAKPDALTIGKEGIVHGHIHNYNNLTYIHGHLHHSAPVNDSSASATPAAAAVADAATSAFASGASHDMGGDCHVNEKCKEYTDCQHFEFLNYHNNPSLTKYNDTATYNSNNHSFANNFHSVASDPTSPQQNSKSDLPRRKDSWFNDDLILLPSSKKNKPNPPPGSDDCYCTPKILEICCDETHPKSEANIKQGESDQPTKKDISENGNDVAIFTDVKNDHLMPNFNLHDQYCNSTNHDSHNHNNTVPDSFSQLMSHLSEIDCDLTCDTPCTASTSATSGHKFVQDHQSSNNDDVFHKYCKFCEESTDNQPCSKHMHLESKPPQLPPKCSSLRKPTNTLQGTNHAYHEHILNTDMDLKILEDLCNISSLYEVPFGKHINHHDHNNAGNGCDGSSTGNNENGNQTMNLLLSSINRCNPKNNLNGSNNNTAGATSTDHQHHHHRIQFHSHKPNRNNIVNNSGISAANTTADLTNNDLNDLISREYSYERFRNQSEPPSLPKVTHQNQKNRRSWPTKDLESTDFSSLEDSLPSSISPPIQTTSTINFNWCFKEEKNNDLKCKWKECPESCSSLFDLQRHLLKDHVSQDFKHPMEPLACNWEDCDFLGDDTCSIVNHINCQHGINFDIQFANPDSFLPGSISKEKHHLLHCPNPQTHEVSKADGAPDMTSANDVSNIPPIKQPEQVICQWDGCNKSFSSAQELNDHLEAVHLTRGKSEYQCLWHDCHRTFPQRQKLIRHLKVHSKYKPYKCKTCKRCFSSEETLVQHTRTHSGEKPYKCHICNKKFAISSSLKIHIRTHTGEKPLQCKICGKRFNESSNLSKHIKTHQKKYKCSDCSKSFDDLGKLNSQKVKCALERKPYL
Experiment: PBM E-score (8-mer binding enrichment) (E-score (-0.5 to 0.5)); higher = stronger / more preferred TF binding
Conditions: protein concentration: 200 nM; construct: GST-full length
Whole data set: some 33,000 sequences, median “E-score (-0.5 to 0.5)” near -0.021, cut for the highest 2% near 0.32. What follows is part of a selection rich in the highest values, with near analogues and random picks from the rest.
So basically, the class depends on measured PBM E-score, and the ranges are A = under 0.02, B = from 0.02 up to 0.2, C = 0.2 and over

Example results:
> print(dat)
   record.sequence  assigned.category
1         GTGACCAC                  C
2         AATAGGGG                  B
3         AACAGGGC                  A
4         AACAGGGT                  C
5         CTTGACCA                  B
6         TACTTGCA                  B
7         GAGTAAGC                  A
8         TCCCTCCA                  A

# bin lookup: classify "ATGGCCAG" by its PBM E-score
C

----------
Target: Zap1 (UniProt P47043)
Sequence: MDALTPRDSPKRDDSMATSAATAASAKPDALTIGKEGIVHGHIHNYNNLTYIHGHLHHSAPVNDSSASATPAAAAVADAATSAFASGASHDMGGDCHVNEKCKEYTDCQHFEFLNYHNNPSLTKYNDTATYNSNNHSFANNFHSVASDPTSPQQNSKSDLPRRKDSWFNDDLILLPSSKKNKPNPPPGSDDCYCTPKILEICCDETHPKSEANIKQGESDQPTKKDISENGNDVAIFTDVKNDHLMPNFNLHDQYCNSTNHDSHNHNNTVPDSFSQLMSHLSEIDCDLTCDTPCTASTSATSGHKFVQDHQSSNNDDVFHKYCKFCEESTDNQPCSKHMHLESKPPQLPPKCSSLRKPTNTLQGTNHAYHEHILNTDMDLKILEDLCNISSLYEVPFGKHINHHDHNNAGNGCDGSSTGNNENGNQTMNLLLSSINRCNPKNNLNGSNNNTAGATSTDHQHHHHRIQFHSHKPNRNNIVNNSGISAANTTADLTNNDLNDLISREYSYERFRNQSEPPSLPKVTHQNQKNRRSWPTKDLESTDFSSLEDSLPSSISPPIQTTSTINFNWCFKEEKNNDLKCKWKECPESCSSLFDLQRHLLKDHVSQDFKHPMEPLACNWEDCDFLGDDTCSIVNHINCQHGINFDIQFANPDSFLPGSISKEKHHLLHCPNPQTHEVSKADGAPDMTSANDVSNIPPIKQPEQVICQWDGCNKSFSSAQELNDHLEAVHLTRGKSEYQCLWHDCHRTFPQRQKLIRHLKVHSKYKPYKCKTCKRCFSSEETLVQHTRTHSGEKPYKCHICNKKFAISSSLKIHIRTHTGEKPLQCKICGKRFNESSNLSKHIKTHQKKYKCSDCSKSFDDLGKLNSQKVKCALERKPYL
Assay: PBM E-score (8-mer binding enrichment) (E-score (-0.5 to 0.5)); higher = stronger / more preferred TF binding
Settings: protein concentration: 200 nM; construct: GST-full length
Whole data set: some 33,000 sequences, median “E-score (-0.5 to 0.5)” near -0.021, cut for the highest 2% near 0.32. Shown is part of a subset that was picked to be rich in the highest values.
# PBM E-score >= 0.2 gives yes, anything below gives no

See these solved cases before continuing.
> print(dat)
   record.sequence  assigned.category
1         GAAGGTCA                yes
2         CGAATCGA                 no
3         AGAGCTAC                 no
4         TAAGGTGA                 no
5         TTAATGAA                 no

Form field: PBM E-score at least 0.2? Entry: "TAGCTCGA"
no

Check this sequence for PBM E-score at or above 0.2: "ACAGGTCG"
no

Given "AAAGGTCA" , state whether its PBM E-score is at least 0.2.
yes

Identify whether the reported PBM E-score of the following sequence is 0.2 or greater: "CATGTGCA"
no

Does PBM E-score meet or surpass 0.2 for "AAAGGTGG" ?
no

# check: PBM E-score of "AAAGGTCC" is greater than or equal to 0.2
yes
